Each recorded value in this set is attributed to patent US5242945A.

tested target: human synovial fluid PLA2 (Homo sapiens)
Construct: Purified human synovial fluid; from tissue; host or cells: human synovial fluid
Sequence (P14555 21-144): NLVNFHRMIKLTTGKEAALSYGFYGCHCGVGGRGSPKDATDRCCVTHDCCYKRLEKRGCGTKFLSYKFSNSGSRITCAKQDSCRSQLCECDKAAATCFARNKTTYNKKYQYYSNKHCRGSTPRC
assay text: in vitro isolated phospholipase A2 assay, human synovial fluid PLA2
Format: biochemical
conditions: at 10 μM; + values given without explanation; read-out: % Inhibition HSF (human synovial fluid)
Description: The compounds of the invention are tested in an in vitro isolated phospholipase A2 assay to determine the ability of the test compounds to inhibit the release of arachidonic acid from an arachidonic acid-containing substrate by the action of phospholipase A2 enzyme from human and non-human sources. […] The sample is loaded onto the columns and slowly drawn through them. […] The arachidonic acid is transferred to scintillation vials and quantitated by β-counting analysis. […]
result type: inhibition at 10 µM (%)

Worked examples follow.
molecule	inhibition at 10 µM [%]
O=C(CCCCCCCCCc1ccc(C(F)(F)F)cc1)C1=C(O)COC1=O [Example 45]	55.6
CCCCCCCC/C=C\CCCCCCCC(=O)OCC(CCC(=O)C1=C(O)COC1=O)OC(=O)CCCCCCC/C=C\CCCCCCCC (stereo not shown) [Example 24]	79.5
O=C(CCCCCOc1ccc(Cl)cc1)C1=C(O)COC1=O [Example 21]	24
CCCCCCNC(=O)OCC(CCC(=O)C1=C(O)COC1=O)OC(=O)NCCCCCC (stereo not shown) [Example 30]	21
CCCCCCCCCCC/C=C\CCCCC(=O)C1=C(O)CSC1=O [Example 51]	29.4

1 = CCCCCCCCCCCCNC(=O)OCC(CCC(=O)C1=C(O)COC1=O)OC(=O)NCCCCCCCCCCCC (stereo not shown) [Example 31]
2 = O=C(/C=C/c1ccccc1)C1=C(O)COC1=O [Example 8]
Incoming: Min inhibition at 10 µM? 1 | 2 Refer to your chosen entry by its label in the reply.
Outgoing: 1

a = CC/C=C\C/C=C\C/C=C\CCCCCCCC(=O)C1=C(O)COC1=O [Example 15]
b = CCCCCCOc1ccc(OCCCCCC(=O)C2=C(O)COC2=O)cc1 [Example 33]
c = COc1ccc(/C=C/C(=O)C2=C(O)COC2=O)cc1OC [Example 16]
Incoming: Hey, can you sort those molecules up there by inhibition at 10 µM, smallest first? Labels, requested order.
Outgoing: c, b, a
(c: 5.5%, b: 10%, a: 77.5%)

a = CCCCC/C=C\C/C=C\CCCCCCCC(=O)C1=C(O)COC1=O [Example 14]
b = CCCCCCCC/C=C\CCCCCCCC(=O)C1=C(O)C(C)(C)OC1=O [Example 17]
c = O=C(CCCCCCCCOc1ccc(Cl)cc1)C1=C(O)COC1=O [Example 29]
Incoming: List these items ordered by inhibition at 10 µM, big to small. Labels, requested order.
Outgoing: a, c, b
(a: 95%, c: 33.6%, b: 9%)
